The reported measurements were obtained from PubChem BioAssay (NCATS).

Assay: VSVG counterscreen qHTS to identify inhibitors of SARS-CoV-2 cell entry (AID 1645847); further: nearly all actives have a fitted effect of over 65% in size
Settings: VSV-G pseudotyped particle entry, luciferase; series mostly up to 57.2 µM
Results filed as inconclusive are left out. The source made the active and inactive calls. The call rests on the fitted dose curve.
Answer with one of the outcomes given here: Y (active), N (inactive)

# input Just curious, what result did COc1ccc(S(=O)(=O)Nc2cccnc2Nc2ccc(O)cc2)cc1 get here?
# output Y

# input Per the records of this test, what outcome belongs to N#CC1(c2cccc(C(=O)Nc3cc(Oc4ccc5nc(NC(=O)C6CC6)sc5n4)ccc3F)c2Cl)CC1 ?
# output Y

# input Each compound tested received a call. Report the one for CC[C@@](C)(Nc1ccnc(-c2c[nH]c3ncccc23)n1)C(=O)NCC(F)(F)F .
# output N

# input Give the logged outcome of this assay for the following compound: COc1cc([C@@H]2c3cc4c(cc3[C@H](O)[C@H]3COC(=O)[C@@H]23)OCO4)cc(OC)c1OC
# output Y

# input Could you please tell me the result logged for CCCCOc1c(C(=O)c2c(F)cc(C)cc2F)cnc2n[nH]cc12 in this assay?
# output Y

# input Can you look up the reported call for CC[C@@]1(O)C[C@H](O[C@H]2C[C@H](N(C)C)[C@H](O[C@H]3C[C@H](O)[C@H](O[C@H]4CCC(=O)[C@H](C)O4)[C@H](C)O3)[C@H](C)O2)c2c(cc3c(c2O)C(=O)c2c(O)cccc2C3=O)[C@@H]1C(=O)OC for me?
# output Y

# input Could you please tell me the result logged for CO[C@@H]1[C@@H](OC2OC(C)C(OC3CC(C)(O)C(OC(=O)CC(C)C)C(C)O3)C(N(C)C)C2O)[C@@H](CC=O)C[C@@H](C)C(=O)/C=C\C2O[C@H]2C[C@@H](C)OC(=O)C[C@H]1OC(C)=O (stereo not given in full) in this assay?
# output Y

# input Hey, what did the test say about COc1ccc(F)c(F)c1C(=O)c1cnc(NC2CCN(S(C)(=O)=O)CC2)nc1N ?
# output Y

# input Test call, this compound: C/C(=C\c1csc(C)n1)[C@@H]1C[C@@H]2O[C@@H]2CCC[C@H](C)[C@H](O)[C@@H](C)C(=O)C(C)(C)[C@@H](O)CC(=O)O1
# output Y

# input Hey, what did the test say about CC(=O)O[C@H]1C(=O)[C@@]2(C)C([C@H](OC(=O)c3ccccc3)[C@]3(O)C[C@H](OC(=O)[C@H](O)[C@@H](NC(=O)c4ccccc4)c4ccccc4)C(C)=C1C3(C)C)[C@]1(OC(C)=O)CO[C@@H]1C[C@@H]2O (stereo not given in full) ?
# output Y

# input What did the test return for CN[C@H]1CCc2cc(OC)c(OC)c(OC)c2-c2ccc(OC)c(=O)cc21 ?
# output Y

# input What call does the record list for C[C@@]1(C(=O)Nc2ccc(F)nc2)CCCN1c1nc(Nc2cc(C3CC3)[nH]n2)c2cccn2n1 ?
# output Y

# input What did this assay record as the result for COc1ccc(/C=C/C(=O)Nc2ccccc2C(=O)O)cc1OC ?
# output Y

# input Can you look up the reported call for N#CC(c1ccc(Cl)cc1)c1c(Cl)cc(-n2ncc(=O)[nH]c2=O)cc1Cl (stereo not given) for me?
# output Y

# input What call does the record list for Cc1cc(C(=O)N2CCN(c3cccc(Cl)c3)CC2)n(-c2ccccc2)n1 ?
# output Y
